# tgt: UniProt Q92769
# Sequence (Q92769 whole entry): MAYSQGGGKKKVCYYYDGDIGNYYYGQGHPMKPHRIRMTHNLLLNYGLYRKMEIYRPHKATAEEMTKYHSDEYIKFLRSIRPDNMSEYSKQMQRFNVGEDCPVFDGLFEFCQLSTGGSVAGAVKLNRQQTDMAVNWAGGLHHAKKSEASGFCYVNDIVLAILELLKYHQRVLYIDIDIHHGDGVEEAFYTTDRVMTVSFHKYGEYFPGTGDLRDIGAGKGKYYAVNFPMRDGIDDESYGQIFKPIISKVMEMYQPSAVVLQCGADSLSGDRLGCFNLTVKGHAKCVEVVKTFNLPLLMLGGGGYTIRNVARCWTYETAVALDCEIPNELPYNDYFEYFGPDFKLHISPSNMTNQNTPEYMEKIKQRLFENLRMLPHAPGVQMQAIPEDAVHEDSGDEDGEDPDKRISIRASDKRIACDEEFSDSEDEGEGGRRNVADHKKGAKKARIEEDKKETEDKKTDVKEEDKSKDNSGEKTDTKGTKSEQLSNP
# method.description: HDAC enzyme assay, HDAC2
reported.metric: pIC50
# log scale: pIC50 equals minus log10 of the concentration in mol/L

stdin: Bench note: what pIC50 did COc1ccc(C2(Nc3ncc(C(=O)NO)cn3)CC2)cc1 show?
stdout: 7.55

###

# tgt: HDAC6 (Homo sapiens (Human))
# Sequence (Q9UBN7 whole entry): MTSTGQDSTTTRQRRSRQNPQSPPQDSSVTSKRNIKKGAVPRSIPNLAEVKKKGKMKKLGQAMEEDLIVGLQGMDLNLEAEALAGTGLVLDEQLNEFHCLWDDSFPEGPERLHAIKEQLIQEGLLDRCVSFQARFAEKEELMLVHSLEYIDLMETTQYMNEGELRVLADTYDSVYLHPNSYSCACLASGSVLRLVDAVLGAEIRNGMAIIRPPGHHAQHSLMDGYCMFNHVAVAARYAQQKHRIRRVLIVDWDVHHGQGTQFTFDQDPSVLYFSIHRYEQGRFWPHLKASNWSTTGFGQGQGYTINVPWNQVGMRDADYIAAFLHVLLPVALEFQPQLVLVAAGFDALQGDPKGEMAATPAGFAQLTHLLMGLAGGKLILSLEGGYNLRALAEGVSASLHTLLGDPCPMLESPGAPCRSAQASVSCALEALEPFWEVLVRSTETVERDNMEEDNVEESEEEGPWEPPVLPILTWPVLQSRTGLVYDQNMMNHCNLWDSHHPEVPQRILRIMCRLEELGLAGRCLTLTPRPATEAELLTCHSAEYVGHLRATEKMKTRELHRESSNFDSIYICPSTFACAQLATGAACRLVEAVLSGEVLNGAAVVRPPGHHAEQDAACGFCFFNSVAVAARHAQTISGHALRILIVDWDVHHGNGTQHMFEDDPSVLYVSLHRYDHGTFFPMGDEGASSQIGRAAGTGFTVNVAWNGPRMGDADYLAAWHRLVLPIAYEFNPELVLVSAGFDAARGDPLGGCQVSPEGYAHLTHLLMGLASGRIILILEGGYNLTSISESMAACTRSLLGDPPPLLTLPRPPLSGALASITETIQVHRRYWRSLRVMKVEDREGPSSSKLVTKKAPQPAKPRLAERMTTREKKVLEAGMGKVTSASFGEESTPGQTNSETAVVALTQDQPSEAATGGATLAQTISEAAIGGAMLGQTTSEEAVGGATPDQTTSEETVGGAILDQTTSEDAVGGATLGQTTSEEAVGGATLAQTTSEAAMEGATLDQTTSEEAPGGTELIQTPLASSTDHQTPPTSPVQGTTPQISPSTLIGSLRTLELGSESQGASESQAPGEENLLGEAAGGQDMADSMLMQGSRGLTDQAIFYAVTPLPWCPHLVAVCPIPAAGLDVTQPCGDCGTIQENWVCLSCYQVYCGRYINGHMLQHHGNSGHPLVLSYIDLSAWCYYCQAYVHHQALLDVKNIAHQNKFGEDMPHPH
# assay.conditions: read-out: HDAC6 IC50
Answer each item with its documented pIC50.
# log scale: pIC50 equals minus log10 of the concentration in mol/L

stdin: Bench note: what pIC50 did O=C(NO)c1cnc(NC2(c3ccccc3)CCC2)nc1 show?
stdout: 8.52

stdin: Same thing, different compound: CC(C)(Nc1ncc(C(=O)NO)cn1)c1cccc(F)c1
stdout: 8.52

stdin: Same thing, different compound: O=C(NO)c1cnc(NCCc2cccc(Cl)c2)nc1
stdout: 8.40

stdin: Same thing, different compound: O=C(NO)c1cnc(NCc2ccccn2)nc1
stdout: 8.30

stdin: Same thing, different compound: CC1(Nc2ncc(C(=O)NO)cn2)CCCCC1
stdout: 7.39

stdin: Same thing, different compound: O=C(NO)c1cnc(NC2(c3ccccc3)CCCCC2)nc1
stdout: 8.15

stdin: Same thing, different compound: O=C(NO)c1cnc(Nc2ccc(Cl)cc2)nc1
stdout: 7.70

stdin: Same thing, different compound: CN(c1ccc(Cl)c(Cl)c1)c1ncc(C(=O)NO)cn1
stdout: 7.42

stdin: Same thing, different compound: O=C(NO)c1cnc(NCc2ccc(Cl)cc2)nc1
stdout: 8.70

stdin: Same thing, different compound: CC(C)(Nc1ncc(C(=O)NO)cn1)c1ccc(C(F)(F)F)cc1
stdout: 8.22

stdin: Same thing, different compound: O=C(NO)c1cnc(NC2(c3cccc(F)c3F)CC2)nc1
stdout: 8.40

stdin: Same thing, different compound: O=C(NO)c1cnc(NC2(c3cc(C(F)(F)F)cc(C(F)(F)F)c3)CC2)nc1
stdout: 8.22

stdin: Same thing, different compound: O=C(NO)c1cnc(NC2(Cc3ccccc3)CC2)nc1
stdout: 8.40

stdin: Same thing, different compound: O=C(NO)c1cnc(Nc2cccc(Cl)c2)nc1
stdout: 8.30

stdin: Same thing, different compound: O=C(NO)c1cnc(Nc2c(Cl)cccc2Cl)nc1
stdout: 6.06

stdin: Same thing, different compound: O=C(NO)c1cnc(NCc2cccc(Cl)c2)nc1
stdout: 9.00

stdin: Same thing, different compound: O=C(NO)c1cnc(NCc2cccnc2)nc1
stdout: 8.40

stdin: Same thing, different compound: O=C(NO)c1cnc(NCc2ccccc2-c2ccccc2)nc1
stdout: 8.10

stdin: Same thing, different compound: O=C(NO)c1cnc(NC2(c3ccccc3)CCCC2)nc1
stdout: 8.52

stdin: Same thing, different compound: O=C(NO)c1cnc(NC2(c3cccc(OC(F)(F)F)c3)CC2)nc1
stdout: 8.70

stdin: Same thing, different compound: O=C(NO)c1cnc(NCc2ccccc2)nc1
stdout: 8.70

stdin: Same thing, different compound: O=C(NO)c1cnc(NC2(c3cccs3)CC2)nc1
stdout: 8.40

stdin: Same thing, different compound: O=C(NO)c1cnc(NC2(c3ccc(F)cc3)CCCC2)nc1
stdout: 8.52

stdin: Same thing, different compound: COc1ccc(Cl)cc1C1(Nc2ncc(C(=O)NO)cn2)CC1
stdout: 8.40

stdin: Same thing, different compound: O=C(NO)c1cnc(NCc2ccccc2Cl)nc1
stdout: 8.70

stdin: Same thing, different compound: CC(Nc1ncc(C(=O)NO)cn1)c1ccccc1 (centres unmarked) [Compound 67]
stdout: 8.70

stdin: Same thing, different compound: O=C(NO)c1cnc(NC2(c3ccc(F)cc3)CCCCC2)nc1
stdout: 8.05

stdin: Same thing, different compound: O=C(NO)c1cnc(NCCc2ccccc2-c2ccccc2)nc1
stdout: 7.40

stdin: Same thing, different compound: CC(Nc1ncc(C(=O)NO)cn1)c1ccccc1 (centres unmarked) [Compound 32]
stdout: 8.70

stdin: Same thing, different compound: O=C(NO)c1cnc(NC2(c3cc(C(F)(F)F)ccc3F)CC2)nc1
stdout: 8.70

stdin: Same thing, different compound: O=C(NO)c1cnc(NC2(c3cc4ccccc4s3)CC2)nc1
stdout: 8.70

stdin: Same thing, different compound: O=C(NO)c1cnc(NCc2cnccn2)nc1
stdout: 8.40

stdin: Same thing, different compound: O=C(NO)c1cnc(NC2CCCCC2)nc1
stdout: 7.34

stdin: Same thing, different compound: O=C(NO)c1cnc(NC2(c3ccc4c(c3)OCO4)CC2)nc1
stdout: 8.70

stdin: Same thing, different compound: Cc1cc(C(F)(F)F)cc(C2(Nc3ncc(C(=O)NO)cn3)CC2)c1
stdout: 8.52

stdin: Same thing, different compound: O=C(NO)c1cnc(Nc2cccc(-c3ccncc3)c2)nc1
stdout: 8.52

stdin: Same thing, different compound: O=C(NO)c1cnc(NC2(c3cccc(F)c3)CCCC2)nc1
stdout: 8.52

stdin: Same thing, different compound: O=C(NO)c1cnc(NCc2ccncc2)nc1
stdout: 8.30

stdin: Same thing, different compound: O=C(NO)c1cnc(NCCc2ccccc2Cl)nc1
stdout: 8.40

stdin: Same thing, different compound: O=C(NO)c1cnc(Nc2ccccc2)nc1
stdout: 8.15

stdin: Same thing, different compound: O=C(NO)c1cnc(NC2(c3ccc(C(F)(F)F)cc3)CC2)nc1
stdout: 8.15
